Some variants, each annotated with its measured exon inclusion enrichment index.
B1: mRNA-splicing (parent)
chain: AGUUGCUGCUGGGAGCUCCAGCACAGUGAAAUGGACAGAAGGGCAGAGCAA

Variants of: B1
Assay Name: exon inclusion enrichment index; higher = more inclusion; WT1 exon 5 minigene, HEK293

Sequence Code: AAUUAGGGAUGGGAGCUCCAGCACAGUGAAAUGGACAGAAGGGCAGAGCAA
exon inclusion enrichment index: 0.0189
//
Sequence Code: AGUUCACACAGGGAGCUCGAGCACAGUGAAAUGGACAGAAGGGCAGAGCAA
exon inclusion enrichment index: 0.078
//
Sequence Code: ACGUCGCGCCGGGAGCUCCAGCACAGUGAAAUGGACAGAAGGGCAGAGCAA
exon inclusion enrichment index: 2.57
//
Sequence Code: AGGACUUCUCGGGAGCUCCAGCACAGUGAAAUGGACAGAAGGGCAGAGCAA
exon inclusion enrichment index: 0.91
//
Sequence Code: AGUUCUUCUCGGGAGCAUCAGCACAGUGAAAUGGACAGAAGGGCAGAGCAA
exon inclusion enrichment index: 1.58
//
Sequence Code: AGUUGAAGAAGGGAGCUCCAGCCAAGUGAAAUGGACAGAAGGGCAGAGCAA
exon inclusion enrichment index: 0.907
//
Sequence Code: AGUUCGCGCCGGGAGCUCCAGCACAGUGUAAUGGACAGAAGGGCAGAGCAA
exon inclusion enrichment index: 1.68
//
Sequence Code: AGUUGCUGCUGGGAGCUCCAGCACAGUGAAAUGCGCAGAAGGGCAGAGCAA
exon inclusion enrichment index: 0.0695
//
Sequence Code: AGUUGAAGAAGGGAGCUCCAGCACAGUGAAAUGGAUCGAAGGGCAGAGCAA
exon inclusion enrichment index: 0.478
//
Sequence Code: AGUUACCACAGGGAGCUCCAGCACAGUGAAAUGGACAGAAGGGCAGAGCAA
exon inclusion enrichment index: 0.253
//
Sequence Code: AGUUCUUCUCGGGAGCUCCAGCACAGUGAAAUGGACAGAACGGCAGAGCAA
exon inclusion enrichment index: 3.06
